target: human c-Met (human, UniProt P08581 25-1390)
Sequence (P08581 25-1390): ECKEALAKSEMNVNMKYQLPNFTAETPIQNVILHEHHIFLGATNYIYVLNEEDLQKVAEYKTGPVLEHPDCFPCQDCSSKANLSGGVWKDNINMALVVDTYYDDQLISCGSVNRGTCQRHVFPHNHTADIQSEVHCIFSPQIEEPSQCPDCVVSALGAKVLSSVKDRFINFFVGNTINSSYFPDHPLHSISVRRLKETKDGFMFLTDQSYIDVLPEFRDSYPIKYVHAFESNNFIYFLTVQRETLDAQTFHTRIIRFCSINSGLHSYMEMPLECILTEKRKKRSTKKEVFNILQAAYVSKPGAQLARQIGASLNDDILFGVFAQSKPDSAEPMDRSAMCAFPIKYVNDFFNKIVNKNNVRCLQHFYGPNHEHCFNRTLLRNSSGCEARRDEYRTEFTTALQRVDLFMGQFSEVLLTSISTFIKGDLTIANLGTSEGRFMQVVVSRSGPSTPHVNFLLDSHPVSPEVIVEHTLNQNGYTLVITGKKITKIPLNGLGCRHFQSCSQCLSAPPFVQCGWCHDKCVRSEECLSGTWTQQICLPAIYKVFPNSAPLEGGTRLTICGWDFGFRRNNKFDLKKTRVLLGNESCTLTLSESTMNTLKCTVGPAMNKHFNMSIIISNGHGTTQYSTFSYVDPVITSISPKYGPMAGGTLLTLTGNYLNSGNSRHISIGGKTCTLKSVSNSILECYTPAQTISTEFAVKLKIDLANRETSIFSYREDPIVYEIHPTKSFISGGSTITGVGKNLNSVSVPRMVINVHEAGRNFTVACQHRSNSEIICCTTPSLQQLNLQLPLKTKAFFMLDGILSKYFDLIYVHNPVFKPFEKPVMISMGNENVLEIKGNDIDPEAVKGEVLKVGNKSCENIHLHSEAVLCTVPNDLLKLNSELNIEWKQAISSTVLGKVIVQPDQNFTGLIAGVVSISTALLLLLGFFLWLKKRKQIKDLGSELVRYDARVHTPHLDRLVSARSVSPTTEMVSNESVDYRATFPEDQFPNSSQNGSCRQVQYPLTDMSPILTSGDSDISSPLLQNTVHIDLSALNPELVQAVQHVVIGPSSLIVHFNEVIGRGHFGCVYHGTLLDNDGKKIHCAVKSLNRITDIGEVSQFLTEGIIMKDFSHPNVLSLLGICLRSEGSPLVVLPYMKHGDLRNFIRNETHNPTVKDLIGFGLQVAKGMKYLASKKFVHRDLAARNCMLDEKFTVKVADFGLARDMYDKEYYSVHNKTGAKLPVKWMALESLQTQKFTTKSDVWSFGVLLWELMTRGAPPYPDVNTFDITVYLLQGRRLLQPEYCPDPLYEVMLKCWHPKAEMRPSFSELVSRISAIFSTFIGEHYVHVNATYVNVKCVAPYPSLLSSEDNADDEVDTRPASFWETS
protocol description: cell-based or functional assay
value kind: % inhibition of HGF stimulated phospho-Met (ELISA, HCT116 cells), Ab 0.4 µg/mL (%)

binder: D11-8B8 (antibody, human IgG2, kappa, V domains shown, Human engineered IgG2 kappa c-Met antibody; also called Mab D11-8B8; D11-8B8 IgG2) VH: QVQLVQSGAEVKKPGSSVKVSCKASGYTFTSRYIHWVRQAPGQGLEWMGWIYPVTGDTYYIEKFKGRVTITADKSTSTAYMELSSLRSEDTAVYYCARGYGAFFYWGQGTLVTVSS VL: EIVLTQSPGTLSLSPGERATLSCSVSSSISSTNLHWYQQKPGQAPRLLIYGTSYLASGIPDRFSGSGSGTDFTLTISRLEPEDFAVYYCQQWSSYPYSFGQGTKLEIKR
test result: 35
--
binder: D11-C27G3 (antibody, human IgG2, kappa, V domains shown, Human engineered IgG2 kappa c-Met antibody; also called D11-27G3; D11-C27G3 IgG2) VH: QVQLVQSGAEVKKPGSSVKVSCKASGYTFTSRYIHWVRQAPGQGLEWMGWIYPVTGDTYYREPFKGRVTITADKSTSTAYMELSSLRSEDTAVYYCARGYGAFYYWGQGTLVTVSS VL: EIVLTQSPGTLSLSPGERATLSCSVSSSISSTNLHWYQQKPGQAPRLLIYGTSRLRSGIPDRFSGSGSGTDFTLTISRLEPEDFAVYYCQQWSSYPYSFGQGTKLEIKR
test result: 38.1
--
binder: C8-co-16 (antibody, human IgG2, kappa, V domains shown, Named IgG4 kappa; also called C8-co-16 IgG4) VH: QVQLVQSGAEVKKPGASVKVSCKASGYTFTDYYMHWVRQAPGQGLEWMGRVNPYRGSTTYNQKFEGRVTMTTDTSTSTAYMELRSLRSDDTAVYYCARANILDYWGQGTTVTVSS VL: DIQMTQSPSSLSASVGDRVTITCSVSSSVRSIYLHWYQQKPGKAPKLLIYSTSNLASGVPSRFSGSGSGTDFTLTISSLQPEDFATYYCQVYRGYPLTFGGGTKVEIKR
test result: 45.1
--
binder: D11-S17Y (antibody, human IgG2, kappa, V domains shown, Human engineered IgG2 kappa c-Met antibody; also called D11-S17Y IgG2) VH: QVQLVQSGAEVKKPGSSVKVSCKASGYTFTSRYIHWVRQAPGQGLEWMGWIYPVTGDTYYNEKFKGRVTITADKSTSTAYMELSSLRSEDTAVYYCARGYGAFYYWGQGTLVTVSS VL: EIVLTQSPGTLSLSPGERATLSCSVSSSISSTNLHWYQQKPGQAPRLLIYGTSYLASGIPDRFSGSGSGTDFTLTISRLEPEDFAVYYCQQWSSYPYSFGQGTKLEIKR
test result: 15.9
--
binder: C8-6 (antibody, human IgG2, kappa, V domains shown, Named IgG4 kappa; also called C8-6 IgG4) VH: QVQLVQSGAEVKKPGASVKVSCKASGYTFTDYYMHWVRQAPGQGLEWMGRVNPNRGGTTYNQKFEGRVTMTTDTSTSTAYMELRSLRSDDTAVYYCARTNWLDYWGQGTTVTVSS VL: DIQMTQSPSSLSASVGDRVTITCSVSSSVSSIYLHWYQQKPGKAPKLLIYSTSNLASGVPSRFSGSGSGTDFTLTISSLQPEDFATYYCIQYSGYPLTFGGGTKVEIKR
test result: 16.8
